target: spike protein of SARS-CoV-2 δ strain on pseudovirus (SARS-CoV-2 (δ strain)); assay: cell-based or functional assay
measured attribute: IC50 of pseudovirus infection (luciferase) (µg/mL)
Provide only the numeric value, understood in µg/mL.

Give recorded IC50 of pseudovirus infection (luciferase). Ab712 (antibody, V domains shown) VH: QVQLVQSGSELKKPGASVKISCKASGYTFINHAINWVRQAPGQGLEWMGWINTNTGNPTYAPGFTGRFVFSLDTSVSTAYLQISSLKAEDTAVYYCARIPIRDYDYDGSGYYYFLDYWGQGTLVTVSS VL: SYELTQDPAVSVALGQTVRITCQGDSLRSSSASWYQQKPGQAPVLVIYGKTNRPSGIPDRFSGSSSGNTASLTITGAQAEDEADYYCNSRDNSGNHPVVFGGGTKLTVL
0.0799

The measurements presented in this section are drawn from patent US20230348573A1.
